Below, each entry is listed with its recorded Binding (FOI).
Target: T1, human CD3 expressed on cells (Jurkat cells; human primary T cells) (human, UniProt P07766 23-207; P04234 22-171; P09693 23-182)
T1 construct: whole, on cells
T1 sequence (P07766 23-207, chain 1 of 3): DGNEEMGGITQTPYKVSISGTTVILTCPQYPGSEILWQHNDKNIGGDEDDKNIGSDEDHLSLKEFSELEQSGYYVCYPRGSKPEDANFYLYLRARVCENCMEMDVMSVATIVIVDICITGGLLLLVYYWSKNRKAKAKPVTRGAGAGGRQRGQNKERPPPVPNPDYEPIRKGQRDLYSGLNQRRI
T1 sequence (P04234 22-171, chain 2 of 3): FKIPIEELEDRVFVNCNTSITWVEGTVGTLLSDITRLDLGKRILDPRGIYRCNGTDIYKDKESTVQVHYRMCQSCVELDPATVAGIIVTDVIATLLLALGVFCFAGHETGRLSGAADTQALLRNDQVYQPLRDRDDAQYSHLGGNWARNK
T1 sequence (P09693 23-182, chain 3 of 3): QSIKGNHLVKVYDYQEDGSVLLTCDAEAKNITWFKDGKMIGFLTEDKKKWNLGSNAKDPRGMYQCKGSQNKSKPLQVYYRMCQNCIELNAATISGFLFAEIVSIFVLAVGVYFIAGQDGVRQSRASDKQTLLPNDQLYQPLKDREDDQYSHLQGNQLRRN
Assay: flow cytometry, 25 nM, Jurkat cells
Field format: number, assumed FOI, no unit text.

These solved cases illustrate the format of a correct answer.
mAb 238 (antibody, V domains shown, VH/VL only) VH: EVQLLESGGDLVQPGGSLRLTCAASGFTFRSYAMNWVRQAPGKGLEWVSTISSRGDTTNYADSVKGRFTISRDTSKNTLYLQMDNLRADDTAVYYCSKMFSYYYYYMDVWGKGTTVTVSS VL: SYELTQPLSVSVALGQTARITCGGNNIGSKDVHWYQQKPGQAPVLVIYRDSNRPSGIPERFSGSNSGNTATLTISRAQAGDEADYYCQVWDSSTAVFGGGTQLTAL
185
mAb 196 (antibody, V domains shown, VH/VL only) VH: QEQLVESGGGVVQSGRSLRLSCVASGFKFSGYGMHWVRQAPGKGLEWVAIIYYDGKNKYYADSVKGRFTVSRDNSKNTLYLQMNSLRAEDTAVYYCTRGAGYNWFDSWGQGTLVTVSS VL: EIVMTQSPATLSVSPGERATLSCRASQSVRNNLAWYQQKPGQAPRLLIYGVSTRATAFPARFSGSGSGTEFTLTISSLQSEDFAVYYCQQYNNWPLTFGGGTKVEIK
172

Next item in the queue.
QUERY: Consider the binder mAb 192 (antibody, V domains shown, VH/VL only) VH: QVQLVESGGGVVQPGRSLRLSCAASGFTFSGYGMHWVRQAPGKGLEWVAIIYYNGKKEYYADSVKGRFTISRDNSKNTLYLQMNSLRAEDTAVYYCTRGEGYNWFDPWGQGILVTVSS VL: EIVMTQSPATLSVSPGERATLSCRASQSVSSNLAWYQQKPGQAPRLLIYGASTRATGIPARFSGSGSGTEFTLTISSLQSEDFAVYYCKQYKNWPLTFGGGTKVEIK . State its measured Binding (FOI).
RESULT: 176

These measurements were taken from patent US20230295310A1.
